Form field: growth (one value per entry).
system: IGROV1 ovarian; assay: NCI-60 one-dose screen, 48 h (100 = growth as untreated, 0 = no growth, -100 = all killed); settings: 10 µM unless noted
About 83,000 compounds went through this panel and 20% of them were active in at least one assay; those are over-represented in the sample as a whole. The source made the active and inactive calls. How the source made its calls: active means growth percent below 10; inactive means the rest.

>>> print(df.to_string())
                                   compound      systemname  experimentalresult
0  CCOC(=O)c1c(NC(=O)c2cccc(C(F)(F)F)c2)sc2c(CN(C)C)c(O)ccc12  IGROV1 ovarian    83.1% (inactive)
1  NC(Cc1ccc(O)c([N+](=O)[O-])c1)C(=O)O (configuration not stated)  IGROV1 ovarian      85% (inactive)
2  COc1ccc(C2=C(Nc3ccc(C(=O)Nc4ccccc4)cc3)C(=O)N(C)C2=O)cc1  IGROV1 ovarian    97.7% (inactive)
3  Cc1ccc(-c2nc([P+](c3ccccc3)(c3ccccc3)c3ccccc3)c(S(=O)(=O)c3ccc(C)cc3)o2)cc1  IGROV1 ovarian    26.4% (inactive)

Here is the next item to consider.
Q: Query: growth; subject: `O=C(Nc1cccc(-c2ccc(Cl)c(C(F)(F)F)c2)c1)C1CCN(Cc2cccc3cccnc23)CC1`
Result: -56.2% (active)

* * *

test system: HCT-116 colon; assay: NCI-60 one-dose screen, 48 h; conditions: 10 µM unless noted
This is part of a sample that, as a whole, favours compounds with a hit. Of some 83,000 tested, about 20% had one in any assay. The source made the active and inactive calls. Rule for the calls: active = growth percent below 10; inactive = the rest.
Would you mind answering with one of these outcomes? YES = active, NO = inactive

// known answers, use as guide
                                   molecule     systemname  qualitativelabel
0  Cn1ccnc1C(=O)/C=C/c1ccc(C(=O)Nc2ccccc2O)cc1  HCT-116 colon                NO
1  CC(C)c1ccc(C(=O)Nc2sc3c(c2C(N)=O)CCC(=O)C3)cc1  HCT-116 colon               YES
2  CCCCCCC12CCC(=O)N1CCc1cncn12 (stereo not given)  HCT-116 colon                NO

Q: I would be grateful if you could indicate the recorded call for `CN(C)CCNC(=O)c1cc2c3cc(Cl)ccc3[nH]c2c2ncccc12` .
Result: YES

Q: And `CCCNc1nc2ccccc2c2c1S(=O)(=O)c1ccc(Cl)cc1C2=O` ?
Result: YES

* * *

system: SW-620 colon; test: NCI-60 one-dose screen, 48 h (100 = growth as untreated, 0 = no growth, -100 = all killed); settings: 10 µM unless noted
Compounds without any hit were thinned out: in the full panel of roughly 83,000, 20% have a hit. Active and inactive are the calls of the source. The calls were made as follows: active = growth percent below 10; inactive = the rest.
Form field: growth (one value per entry).

molecule	systemName	growth
CNC(=O)c1ccccc1Oc1nc(Nc2cc(OC)c(OC)c(OC)c2)ncc1Br	SW-620 colon	46.7% (inactive)

Q: Test system SW-620 colon; read-out growth; what value for `C=C1C(=O)O[C@H]2[C@H]1CC/C(COC(=O)C(=O)c1cn(C)c3ccc(Cl)cc13)=C\CC[C@@]1(C)O[C@@H]21` ?
Result: -69.1% (active)

Q: And `CSc1nc2ncc([N+](=O)[O-])c(=O)n2[nH]1` ?
Result: 101% (inactive)

Q: And `Oc1c(Br)cc(Br)c2ccc(Cn3cc(-c4ccc(C(F)(F)F)cc4)nn3)nc12` ?
Result: -16.3% (active)

Q: And `COc1ccc(-c2ccc(-c3ccc(C(=N)N)cc3)s2)cc1Cl` ?
Result: -71.9% (active)

Q: And `O=C(Nc1cccc2ccccc12)NC1CC1` ?
Result: 105% (inactive)

* * *

tested on: OVCAR-5 ovarian; assay: NCI-60 one-dose screen, 48 h; conditions: 10 µM unless noted
About 83,000 compounds went through this panel and 20% of them were active in at least one assay; those are over-represented in the sample as a whole. The source made the active and inactive calls. The calls were made as follows: active = growth percent below 10; inactive = the rest.
Would you mind answering with one of these outcomes? active, inactive

// known answers, use as guide
In [3]: df
Out[3]:
                            molecularstring  qualitativelabel
0  O=C(CSc1nc2sc3c(c2c(=O)n1-c1ccccc1)CCCCC3)N/N=C/c1cccc([N+](=O)[O-])c1          inactive
1     O=C(/C=C/c1cccs1)Nc1ncc(Cc2ccccc2F)s1          inactive
2  CC(=O)n1nc(C(=O)OC(C)(C)c2ccccc2)c2ccccc21          inactive
3  CC/C(=C(/c1ccc(Cl)cc1)c1ccc(OCCN(C)C)cc1)c1ccc(Cl)cc1          inactive
4  Nc1ncnc2c1c(-c1cccc(Cl)c1)nn2CC(=O)N1CCOCC1          inactive

Q: I would be grateful if you could indicate the recorded call for `CCCOC(=O)Nc1nc2ccc(SCC(C)C)cc2s1` .
Result: inactive

Q: And `CCCCC1=C(P(=O)(O)O)N[C@H](C(=O)O)CS1` ?
Result: inactive

Q: And `Cc1cn(-c2cc(NC(=O)c3cccc(C#Cc4cccc5[nH]nc(N)c45)c3)cc(C(F)(F)F)c2)cn1` ?
Result: inactive

Q: And `c1cc2c(ccc3[nH]c(-c4ccc5[nH]ncc5c4)c4c(c32)CCCC4)n1` ?
Result: inactive

Q: And `C=CC[Se]C(=O)Cc1c(C)n(C(=O)c2ccc(Cl)cc2)c2ccc(OC)cc12` ?
Result: active

* * *

test system: OVCAR-8 ovarian; assay: NCI-60 one-dose screen, 48 h (100 = growth as untreated, 0 = no growth, -100 = all killed); details: 10 µM unless noted
The panel holds about 83,000 compounds, 20% with a hit somewhere; the sample as a whole holds those more often.
reportedMetric: growth (%)
Please give a number only; it is taken to be in %.

Consider the following illustrative entries.
In [3]: df
Out[3]:
                                   compound  reportedmetric  experimentalresult
0  O=C(CN1C(=O)S/C(=C\C(Cl)=C\c2ccccc2)C1=O)NCCc1ccc(O)cc1          growth                  14
1  Cc1cccc(/C=C2\CN(C(=O)OC(C)(C)C)C/C(=C\c3cccc(C)c3)C2=O)c1          growth                85.4
2  CCOc1ccc(NC(=O)CSc2oc(-c3ccccc3)nc2S(=O)(=O)c2ccc(C)cc2)cc1          growth                40.2

Q: Query: growth; subject: CC1(C)CC(=O)C2=C(C1)N(c1ccc(OC(F)(F)F)cc1)C(N)=C(C#N)C2c1ccc(Br)cc1F (configuration not stated)
Result: 35.8

Q: And `COC12C=C/C(=C(/C(=O)OCc3ccncc3)C(=O)CCCCCCCCC3(OC)C=C/C(=C(/C(=O)OCc4ccncc4)C(=O)CCCCCCCC1)O3)O2` ?
Result: 14.7

Q: And `Cc1cn(-c2cc(NC(=O)c3cccc(C#Cc4cccc5[nH]nc(N)c45)c3)cc(C(F)(F)F)c2)cn1` ?
Result: 28.5

Q: And `O=C(NCCNc1nccc(Nc2ccc(S(=O)(=O)Nc3ccccn3)cc2)n1)c1cccc([N+](=O)[O-])c1` ?
Result: 104

Q: And `Cn1c(I)c(C#CCO[Si](C)(C)C(C)(C)C)c(=O)[nH]c1=O` ?
Result: 94.8

Q: And `Cc1[nH]c(C(=O)Nc2ccccc2OC2CCNCC2)c(Cl)c1Cl` ?
Result: 1.61

* * *

system: UACC-257 melanoma; test: NCI-60 one-dose screen, 48 h (100 = growth as untreated, 0 = no growth, -100 = all killed); details: 10 µM unless noted
The panel holds about 83,000 compounds, 20% with a hit somewhere; the sample as a whole holds those more often. Active and inactive are the calls of the source. Rule for the calls: active = growth percent below 10; inactive = the rest.
reportedMetric: growth

>>> df
                            molecularstring  experimentalresult
0            O=c1c2ccccc2n2cnc3ccc(Cl)c1c32    95.7% (inactive)
1  CCN1CCN(C(=O)[C@]23CCC(C)(C)C[C@@H]2C2=CC[C@@H]4[C@@]5(C)CCC(=O)C(C)(C)[C@@H]5CC[C@@]4(C)[C@]2(C)CC3)CC1    32.8% (inactive)

Q: Query: growth; subject: `O=[N+]([O-])c1ccc(O)cc1Br`
Result: 108% (inactive)

* * *

test system: ACHN renal; experiment: NCI-60 one-dose screen, 48 h (100 = growth as untreated, 0 = no growth, -100 = all killed); conditions: 10 µM unless noted
About 83,000 compounds went through this panel and 20% of them were active in at least one assay; those are over-represented in the sample as a whole.
reportedMetric: growth (%)
Please give a number only; it is taken to be in %.

                                   molecule  reportedmetric  unitssymbol  experimentalresult
0  CC1CN(S(=O)(=O)c2oc(-c3ccc(Cl)cc3)nc2C#N)CC(C)O1 (configuration not stated)          growth            %                28.1
1  CC(=O)n1nc(C(=O)OC(C)(C)c2ccccc2)c2ccccc21          growth            %                 100
2  CCOC(=O)Cc1cnc(N/N=C(\C)c2cc3ccccc3o2)s1          growth            %                90.7
3  Nc1n[nH]c2ccc([C@H]3[C@@H]4C5CCC(C5)[C@@H]4c4c(ccc5[nH]ncc45)N3S(=O)(=O)C3CC3)cc12 (some centres not stated)          growth            %                18.5
4  COCCNC(=O)Nc1ccc2nc(-c3cccs3)c(-c3cccs3)nc2c1          growth            %                89.3

Q: Query: growth; subject: `CCOC(=O)c1ccc2c(c1)nc(-c1ccccc1)n2C1CCCCC1`
Result: 112

Q: And `COc1ccc(NC2=C(I)C(=O)c3ncccc3C2=O)cc1` ?
Result: -12.7

Q: And `O=C(/C=C/c1cn(-c2ccccc2)nc1-c1ccc(Cl)cc1)c1ccc(F)cc1` ?
Result: 77.7

Q: And `COc1ccc(/C=C(\C#N)n2nnc3cc(Cl)ccc32)cc1` ?
Result: 14.6

Q: And `CCN(CC)Cc1cc(C=C2C(=O)NC(=S)NC2=O)cc(OC)c1O` ?
Result: 107

Q: And `CCOC(=O)n1cc(-c2nonc2-c2cn(C(=O)OCC)c3ccc(Br)cc23)c2ccccc21` ?
Result: 64.5

Q: And `CC(C)C1=NOC(=O)C1=Cc1cn(-c2ccccc2)nc1-c1ccc(F)cc1` ?
Result: 71.4

Q: And `CC/C=C\C[C@H](O)C/C=C1/C(=O)C=C[C@@H]1C/C=C\CCCC(=O)N(C)C` ?
Result: -85
